As a worked illustration, we turn to MIC data collected for S. pneumoniae SP030.

[[record]]
compound = "CC[C@H]1OC(=O)[C@H](C)[C@@H](O[C@H]2C[C@@](C)(OC)[C@@H](OCCCN(C)CCCc3cc4c5c(c3)c(=O)c(C(=O)O)cn5CCC4)[C@H](C)O2)[C@H](C)[C@@H](O[C@@H]2O[C@H](C)C[C@H](N(C)C)[C@H]2O)[C@](C)(OC)C[C@@H](C)C(=O)[C@@H](C)[C@H]2NC(=O)O[C@@]21C [Example 31]"
measurement_type = "MIC"
result = "≤ 1 µg/mL"


For each of the compounds below, state MIC.
1. CC[C@H]1OC(=O)[C@H](C)[C@@H](O[C@H]2C[C@@](C)(OC)[C@@H](OCCCNCCCc3ccc4c(c3C)c(=O)c(C(=O)O)cn4CC)[C@H](C)O2)[C@H](C)[C@@H](O[C@@H]2O[C@H](C)CC(N(C)C)[C@H]2O)[C@](C)(OC)C[C@@H](C)C(=O)[C@@H](C)[C@H]2NC(=O)O[C@@]21C (stereo partly drawn) [Example 23]
2. CC[C@@H]1OC(=O)[C@H](C)[C@H](O[C@@H]2C[C@](C)(OC)[C@H](OCCCNCCCc3ccc4c(c3)c(=O)c(C(=O)O)cn4CC)[C@H](C)O2)[C@@H](C)[C@H](O[C@H]2O[C@@H](C)C[C@@H](N(C)C)[C@H]2O)[C@](C)(OC)C[C@H](C)C(=O)[C@H](C)[C@H]2N(C)C(=O)O[C@@]12C [Example 7]

Response:
1: ≤ 1 µg/mL; 2: ≤ 1 µg/mL

---

test system: M. catarrhalis ATCC 23246
MEASUREMENT_TYPE: MIC

[[record]]
compound = "CC[C@@H]1OC(=O)[C@H](C)[C@H](O[C@@H]2C[C@](C)(OC)[C@H](OCCNCCCc3ccc4c(c3)c(=O)c(C(=O)O)cn4CC)[C@H](C)O2)[C@@H](C)[C@H](O[C@H]2O[C@@H](C)C[C@@H](N(C)C)[C@H]2O)[C@](C)(O)C[C@H](C)CN(C)[C@@H](C)[C@H]2OC(=O)O[C@@]12C [Example 16]"
result = "≤ 4 µg/mL"


Query: Supply measured MIC of CC[C@@H]1OC(=O)[C@H](C)[C@H](O[C@@H]2C[C@](C)(OC)[C@H](OCCCNCCSc3ccc4c(c3)c(=O)c(C(=O)O)cn4CC)[C@H](C)O2)[C@@H](C)[C@H](O[C@H]2O[C@@H](C)C[C@@H](N(C)C)[C@H]2O)[C@](C)(OC)C[C@H](C)C(=O)[C@H](C)[C@H]2OC(=O)O[C@@]12C [Example 4] in your reply.
Response: ≤ 4 µg/mL

---

Record form. Attribute: MIC. Fill in for each entry.
tested on: M. catarrhalis ATCC 23246

Observe how each entry below is paired with its result.
[[record]]
molecule = "CC[C@H]1OC(=O)[C@H](C)[C@@H](O[C@H]2C[C@@](C)(OC)[C@@H](OCCCN(C)CCCc3cc4c5c(c3)c(=O)c(C(=O)O)cn5CCC4)[C@H](C)O2)[C@H](C)[C@@H](O[C@@H]2O[C@H](C)C[C@H](N(C)C)[C@H]2O)[C@](C)(OC)C[C@@H](C)C(=O)[C@@H](C)[C@H]2NC(=O)O[C@@]21C"
result = "≤ 4 µg/mL"

[[record]]
molecule = "CC[C@H]1OC(=O)[C@H](C)[C@@H](O[C@H]2C[C@@](C)(OC)[C@@H](OCCCNCCCc3ccc4c(c3C)c(=O)c(C(=O)O)cn4CC)[C@H](C)O2)[C@H](C)[C@@H](O[C@@H]2O[C@H](C)CC(N(C)C)[C@H]2O)[C@](C)(OC)C[C@@H](C)C(=O)[C@@H](C)[C@H]2NC(=O)O[C@@]21C (stereo partly drawn)"
result = "≤ 4 µg/mL"


Now consider the entry below.
Query: Quote M. catarrhalis ATCC 23246 MIC for entry CC[C@@H]1OC(=O)[C@H](C)[C@H](O[C@@H]2C[C@](C)(OC)[C@H](OCCNCCNc3nc4c(cc3F)c(=O)c(C(=O)O)cn4CC)[C@H](C)O2)[C@@H](C)[C@H](O[C@H]2O[C@@H](C)C[C@@H](N(C)C)[C@H]2O)[C@](C)(OC)C[C@H](C)C(=O)[C@H](C)[C@H](O)[C@@]1(C)O .
Response: ≤ 4 µg/mL

---

Record form. Attribute: MIC. Fill in for each entry.
test system: S. pneumoniae SP030

Observe how each entry below is paired with its result.
[[record]]
compound = "CC[C@H]1OC(=O)[C@H](C)[C@@H](O[C@H]2C[C@@](C)(OC)[C@@H](OCCCNCCNc3nc4c(cc3F)c(=O)c(C(=O)O)cn4CC)[C@H](C)O2)[C@H](C)[C@@H](O[C@@H]2O[C@H](C)CC(N(C)C)[C@H]2O)[C@](C)(OC)C[C@@H](C)C(=O)[C@@H](C)[C@H]2NC(=O)O[C@@]21C (stereo partly drawn)"
result = "≤ 1 µg/mL"

[[record]]
compound = "CC[C@H]1OC(=O)[C@H](C)[C@@H](O[C@H]2C[C@@](C)(OC)[C@@H](OCCCNCCCc3cc4c5c(c3)c(=O)c(C(=O)O)cn5CCC4)[C@H](C)O2)[C@H](C)[C@@H](O[C@@H]2O[C@H](C)C[C@H](N(C)C)[C@H]2O)[C@](C)(OC)C[C@@H](C)C(=O)[C@@H](C)[C@H]2NC(=O)O[C@@]21C"
result = "≤ 1 µg/mL"


Now consider the entry below.
Query: Supply measured MIC of CC[C@@H]1OC(=O)[C@H](C)[C@H](O[C@@H]2C[C@](C)(OC)[C@H](OCCCN(C)CCCc3ccc4c(c3)c(=O)c(C(=O)O)cn4CC)[C@H](C)O2)[C@@H](C)[C@H](O[C@H]2O[C@@H](C)C[C@@H](N(C)C)[C@H]2O)[C@](C)(OC)C[C@H](C)C(=O)[C@H](C)[C@H]2OC(=O)O[C@@]12C in your reply.
Response: ≤ 1 µg/mL

---

As a worked illustration, we turn to MIC data collected for E. faecalis ATCC 29212.

[[record]]
molecule = "CC[C@H]1OC(=O)[C@H](C)[C@@H](O[C@H]2C[C@@](C)(OC)[C@@H](OCCCNCCNc3nc4c(cc3F)c(=O)c(C(=O)O)cn4CC)[C@H](C)O2)[C@H](C)[C@@H](O[C@@H]2O[C@H](C)CC(N(C)C)[C@H]2O)[C@](C)(OC)C[C@@H](C)C(=O)[C@@H](C)[C@H]2NC(=O)O[C@@]21C (stereo partly drawn)"
result = "≤ 1 µg/mL"


For each of the molecules below, state MIC.
1. CC[C@@H]1OC(=O)[C@H](C)[C@H](O[C@@H]2C[C@](C)(OC)[C@H](OCCCOCCCc3ccc4c(c3)c(=O)c(C(=O)O)cn4CC)[C@H](C)O2)[C@@H](C)[C@H](O[C@H]2O[C@@H](C)C[C@@H](N(C)C)[C@H]2O)[C@](C)(OC)C[C@H](C)C(=O)[C@H](C)[C@H](O)[C@@]1(C)O
2. CC[C@@H]1OC(=O)[C@H](C)[C@H](O[C@@H]2C[C@](C)(OC)[C@H](OCCCN(C)CCCc3ccc4c(c3)c(=O)c(C(=O)O)cn4CC)[C@H](C)O2)[C@@H](C)[C@H](O[C@H]2O[C@@H](C)C[C@@H](N(C)C)[C@H]2O)[C@](C)(OC)C[C@H](C)C(=O)[C@H](C)[C@H]2OC(=O)O[C@@]12C

Response:
≤ 1 µg/mL
≤ 1 µg/mL

---

As a worked illustration, we turn to MIC data collected for E. faecalis ATCC 29212.

Observe how each entry below is paired with its result.
[[record]]
compound = "CC[C@@H]1OC(=O)[C@H](C)[C@H](O[C@@H]2C[C@](C)(OC)[C@H](OCCN(C)CCNc3nc4c(cc3F)c(=O)c(C(=O)O)cn4CC)[C@H](C)O2)[C@@H](C)[C@H](O[C@H]2O[C@@H](C)C[C@@H](N(C)C)[C@H]2O)[C@](C)(OC)C[C@H](C)C(=O)[C@H](C)[C@H](O)[C@@]1(C)O [Example 19]"
result = "≤ 1 µg/mL"

[[record]]
compound = "CC[C@@H]1OC(=O)[C@H](C)[C@H](O[C@@H]2C[C@](C)(OC)[C@H](OCCCN(C)CCNc3nc4c(cc3F)c(=O)c(C(=O)O)cn4CC)[C@H](C)O2)[C@@H](C)[C@H](O[C@H]2O[C@@H](C)C[C@@H](N(C)C)[C@H]2O)[C@](C)(OC)C[C@H](C)C(=O)[C@H](C)[C@H]2OC(=O)O[C@@]12C [Example 15]"
result = "≤ 1 µg/mL"


Now consider the entry below.
Query: Supply measured MIC of CC[C@@H]1OC(=O)[C@H](C)[C@H](O[C@@H]2C[C@](C)(OC)[C@H](OCCCNCCOc3cc4c5c(c3)c(=O)c(C(=O)O)cn5CCC4)[C@H](C)O2)[C@@H](C)[C@H](O[C@H]2O[C@@H](C)C[C@@H](N(C)C)[C@H]2O)[C@](C)(OC)C[C@H](C)C(=O)[C@H](C)[C@H]2OC(=O)O[C@@]12C [Example 6] in your reply.
Response: ≤ 1 µg/mL
